Values were extracted from the Kinase Knowledgebase extract (Sharma et al. 2016).

pIC50: −log10 of the molar value.
// values below are pIC50; system is UniProt P00533
attribute-measured: pIC50

molecule-smiles | result
CS(=O)(=O)CC(=O)Nc1cccc(C#Cc2cncnc2Nc2ccc(OCc3cccc(F)c3)c(Cl)c2)c1 | ≥ 5.00
CS(=O)(=O)CCNC(=O)NCc1cccc(C#Cc2cncnc2Nc2ccc(OCc3cccc(F)c3)c(Cl)c2)n1 | > 7.00
Fc1cccc(COc2ccc(Nc3ncncc3C#Cc3ccsc3)cc2Cl)c1 | ≥ 5.00
C(=C\c1cncnc1Nc1ccc2c(cnn2Cc2ccccc2)c1)/c1cccnc1 | ≥ 5.00

###

// values below are IC50; system is EGFR (UniProt P00533)
Sequence (P00533 whole entry, looked up): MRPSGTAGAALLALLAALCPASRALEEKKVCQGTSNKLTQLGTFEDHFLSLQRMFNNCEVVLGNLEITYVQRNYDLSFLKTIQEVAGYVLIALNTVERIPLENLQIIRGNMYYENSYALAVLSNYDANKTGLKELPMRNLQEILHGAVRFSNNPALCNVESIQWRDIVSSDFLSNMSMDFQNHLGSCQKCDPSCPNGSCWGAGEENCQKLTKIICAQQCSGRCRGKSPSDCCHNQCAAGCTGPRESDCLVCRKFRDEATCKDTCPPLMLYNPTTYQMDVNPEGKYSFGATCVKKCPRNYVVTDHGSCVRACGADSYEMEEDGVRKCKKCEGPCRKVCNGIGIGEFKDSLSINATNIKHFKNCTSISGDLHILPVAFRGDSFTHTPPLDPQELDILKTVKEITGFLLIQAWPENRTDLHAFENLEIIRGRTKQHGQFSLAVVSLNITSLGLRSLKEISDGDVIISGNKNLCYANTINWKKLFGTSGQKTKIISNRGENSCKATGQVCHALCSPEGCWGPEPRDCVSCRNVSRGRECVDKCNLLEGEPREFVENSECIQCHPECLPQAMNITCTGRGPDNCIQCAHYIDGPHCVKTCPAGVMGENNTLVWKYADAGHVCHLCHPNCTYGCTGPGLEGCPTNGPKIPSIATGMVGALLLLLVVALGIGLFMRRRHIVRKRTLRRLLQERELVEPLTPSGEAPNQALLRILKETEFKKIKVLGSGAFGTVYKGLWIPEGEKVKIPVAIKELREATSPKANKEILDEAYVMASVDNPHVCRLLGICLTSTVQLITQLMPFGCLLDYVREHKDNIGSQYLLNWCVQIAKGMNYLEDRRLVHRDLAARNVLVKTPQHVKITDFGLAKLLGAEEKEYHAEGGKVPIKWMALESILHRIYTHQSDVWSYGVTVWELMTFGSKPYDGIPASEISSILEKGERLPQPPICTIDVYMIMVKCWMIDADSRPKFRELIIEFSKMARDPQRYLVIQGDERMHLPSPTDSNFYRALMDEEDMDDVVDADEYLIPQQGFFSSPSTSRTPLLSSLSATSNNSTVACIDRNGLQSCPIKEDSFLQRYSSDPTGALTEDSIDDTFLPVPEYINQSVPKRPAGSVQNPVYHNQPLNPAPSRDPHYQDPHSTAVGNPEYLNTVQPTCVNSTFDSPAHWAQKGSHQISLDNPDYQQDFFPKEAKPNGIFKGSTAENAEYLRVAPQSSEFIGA

molecule-smiles | IC50
COCCNC(=O)NCc1cccc(C#Cc2cncnc2Nc2ccc(OCc3cccc(F)c3)c(Cl)c2)n1 | ≤ 10 µM
Nc1cccc(C#Cc2cncnc2Nc2ccc(OCc3cccc(F)c3)c(Cl)c2)c1 | ≤ 10 µM
Nc1cccc(C#Cc2cncnc2Nc2ccc(OCc3cccc(F)c3)c(Cl)c2)n1 | < 0.1 µM
CC(=O)NCCNCc1cccc(C#Cc2cncnc2Nc2ccc(OCc3cccc(F)c3)c(Cl)c2)n1 | ≤ 10 µM
N#Cc1ccc(C#Cc2cncnc2Nc2ccc(OCc3ccc(F)cc3)c(Cl)c2)nc1N | ≤ 10 µM
Cc1ccc(S(=O)(=O)n2ccc3ccc(C#Cc4cncnc4Nc4ccc(OCc5cccc(F)c5)c(Cl)c4)cc32)cc1 | ≤ 10 µM
CSc1nccc(C#Cc2cncnc2Nc2ccc(OCc3cccc(F)c3)c(Cl)c2)n1 | ≤ 10 µM
CS(=O)(=O)CCNc1nc(C#Cc2cncnc2Nc2ccc(OCc3cccc(F)c3)c(Cl)c2)ncc1C#N | ≤ 10 µM
C(=C\c1cncnc1Nc1ccc2sc(Cc3ccccc3)nc2c1)/c1ccsc1 | > 1 µM
